Target: purified recombinantly expressed human SSAO (Homo sapiens)
Construct: made in house
Sequence (Q16853 1-763): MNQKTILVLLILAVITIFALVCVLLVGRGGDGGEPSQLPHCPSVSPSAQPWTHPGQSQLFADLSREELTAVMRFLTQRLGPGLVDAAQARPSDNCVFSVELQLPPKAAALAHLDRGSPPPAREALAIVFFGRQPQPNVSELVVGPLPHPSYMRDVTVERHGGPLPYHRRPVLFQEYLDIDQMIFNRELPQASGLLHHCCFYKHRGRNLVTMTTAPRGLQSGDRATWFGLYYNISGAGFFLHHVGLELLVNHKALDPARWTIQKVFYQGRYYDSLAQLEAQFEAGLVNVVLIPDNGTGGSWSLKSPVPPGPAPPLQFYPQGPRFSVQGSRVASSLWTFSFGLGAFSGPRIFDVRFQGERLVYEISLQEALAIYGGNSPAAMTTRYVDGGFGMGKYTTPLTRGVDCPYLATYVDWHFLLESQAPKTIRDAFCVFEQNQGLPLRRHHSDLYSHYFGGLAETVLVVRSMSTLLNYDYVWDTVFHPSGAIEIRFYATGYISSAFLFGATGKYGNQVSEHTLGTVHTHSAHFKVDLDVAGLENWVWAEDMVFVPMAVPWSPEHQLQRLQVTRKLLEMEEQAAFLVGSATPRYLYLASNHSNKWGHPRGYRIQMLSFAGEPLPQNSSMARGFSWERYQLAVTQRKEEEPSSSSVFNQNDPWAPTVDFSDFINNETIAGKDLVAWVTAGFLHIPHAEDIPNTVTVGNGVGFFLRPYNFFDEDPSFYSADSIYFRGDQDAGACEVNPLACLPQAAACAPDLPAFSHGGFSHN
Test: SSAO enzyme inhibition assay (benzylamine substrate; hydrogen peroxide/HRP-coupled or 14C-aldehyde detection)
Format: biochemical
Settings: SSAO inhibitory activity; recombinant human SSAO, RT
READOUT: IC50

Below, each entry is followed by its recorded IC50 result.
[[record]]
smi = "Cc1ccc(-n2c(-c3ccc(N4CCCC4)cc3F)nc3ccncc32)cn1"
result = "< 50 nM"

[[record]]
smi = "Cc1ccc(-n2c(-c3ccc(NC4CC4)nc3)nc3ccncc32)cn1"
result = "200 to 1200 nM"


Next molecule, IC50 to be filled in.
Output reported IC50 of the molecule `Cc1ccc(-n2c(-c3ccc(NC4CC4)nc3)nc3ccncc32)cc1` on purified recombinantly expressed human SSAO (Homo sapiens).
< 50 nM

* * *

Molecular target: purified recombinantly expressed human SSAO (Homo sapiens, UniProt Q16853)
Construct: made in house
Sequence (Q16853 1-763): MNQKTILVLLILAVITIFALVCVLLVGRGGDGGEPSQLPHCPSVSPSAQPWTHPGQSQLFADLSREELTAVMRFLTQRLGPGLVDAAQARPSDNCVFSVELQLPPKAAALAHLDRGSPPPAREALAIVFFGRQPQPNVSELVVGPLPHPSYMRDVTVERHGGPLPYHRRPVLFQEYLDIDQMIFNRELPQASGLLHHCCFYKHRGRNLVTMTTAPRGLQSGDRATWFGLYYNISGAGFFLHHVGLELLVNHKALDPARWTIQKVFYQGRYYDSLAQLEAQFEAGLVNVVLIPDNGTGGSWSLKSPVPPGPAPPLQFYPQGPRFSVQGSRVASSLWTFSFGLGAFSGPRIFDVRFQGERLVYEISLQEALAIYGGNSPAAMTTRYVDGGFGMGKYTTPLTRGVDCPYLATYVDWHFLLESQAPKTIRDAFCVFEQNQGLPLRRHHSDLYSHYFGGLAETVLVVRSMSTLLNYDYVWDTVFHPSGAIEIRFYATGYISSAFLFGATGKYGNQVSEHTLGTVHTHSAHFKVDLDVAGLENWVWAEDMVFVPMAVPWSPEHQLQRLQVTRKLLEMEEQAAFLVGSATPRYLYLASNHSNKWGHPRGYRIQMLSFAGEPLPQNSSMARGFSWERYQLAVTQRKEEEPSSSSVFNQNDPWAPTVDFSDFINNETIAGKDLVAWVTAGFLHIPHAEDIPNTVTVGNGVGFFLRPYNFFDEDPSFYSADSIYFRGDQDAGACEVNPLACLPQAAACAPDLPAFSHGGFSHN
Experiment: SSAO enzyme inhibition assay (benzylamine substrate; hydrogen peroxide/HRP-coupled or 14C-aldehyde detection)
Format: biochemical
Conditions: SSAO inhibitory activity; recombinant human SSAO, RT
READOUT: IC50

Below, each entry is followed by its recorded IC50 result.
[[record]]
smi = "CCN(CC)c1ncc(-c2nc3ccncc3n2-c2ccc(C)cc2)cn1"
test_target = "purified recombinantly expressed human SSAO (Homo sapiens, UniProt Q16853)"
readout = "IC50"
result = "< 50 nM"

[[record]]
smi = "Fc1ccc(-n2c(-c3ccc(NCCN4CCOCC4)nc3)nc3ccncc32)cc1"
test_target = "purified recombinantly expressed human SSAO (Homo sapiens, UniProt Q16853)"
readout = "IC50"
result = "< 50 nM"

[[record]]
smi = "CCN(CC)c1ncc(-c2nc3ccncc3n2-c2ccc(C)nc2)cn1"
test_target = "purified recombinantly expressed human SSAO (Homo sapiens, UniProt Q16853)"
readout = "IC50"
result = "50 to 200 nM"


Return IC50 for the following compound: `Cc1ccc(-n2c(-c3cnc(N4CCCC4)nc3)nc3ccncc32)nc1`
50 to 200 nM

In one line, give reported IC50 of the entry `Cc1ccc(-n2c(-c3cnc(N4CCCC4)nc3)nc3ccncc32)cn1` .
50 to 200 nM

Please report IC50 for the following compound: `Cc1cc(N2CCOCC2)ncc1-c1nc2ccncc2n1-c1ccc(Cl)cn1`
< 50 nM

Answer with the recorded IC50 of `Fc1ccc(-n2c(-c3ccc(Cl)nc3)nc3ccncc32)cc1` only.
200 to 1200 nM

Determine from records and report IC50 for `Cc1ccc(-n2c(-c3ccc(N4CCC(F)(F)CC4)nc3)nc3ccncc32)cc1`
< 50 nM

Query IC50 for `Fc1ccc(-n2c(-c3ccc(N4CCOCC4)nc3)nc3ccncc32)nc1`
50 to 200 nM

Supply IC50 value. Item: `Cc1ccc(-n2c(-c3ccc(N4CCC(F)CC4)nc3)nc3ccncc32)cn1`
< 50 nM

Provide IC50 value for the following compound: `Cc1ccc(-n2c(-c3ccc(N4CCOCC4)cc3)nc3ccncc32)nc1`
200 to 1200 nM

Input `Fc1ccc(-n2c(-c3cnc(N4CCCC4)nc3)nc3ccncc32)nc1` , output reported IC50.
50 to 200 nM
